Can you tell me %Inh for the items I'm about to list?
- Test system: PIK3C2B
- condition_parameters: concentration: 1 μM,replicates: in singlicate; n = 1;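 note: KINOMEscan kinase panel screen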
Answers are plain numbers, in %.

Use these answered entries as a reference point.
Cl.c1ccc(Oc2ccc(Nc3ccnc4cc(-c5ccc(CN6CCNCC6)o5)ccc34)cc2)nc1 | 0
COC(=O)Nc1nc2cc(Oc3ccc(NC(=O)Nc4cc(C(F)(F)F)ccc4Cl)cc3)ccc2[nH]1.Cl | 0
CC(=O)Nc1ccc(-c2cc3ncnc(SCC(=O)O)c3s2)cc1 | 6
Cn1ccc2ncnc(Oc3ccc(NC(=O)Nc4cc(C(C)(C)C)on4)c(Cl)c3)c21 | 7
Cc1n[nH]c2cc(Nc3ccnc(Nc4cccc(CN5CCOCC5)c4)n3)ccc12 | 0
Cc1nnc(-c2ccc3occ(-c4ccc(S(C)=O)cc4)c3n2)o1 (centres unmarked) | 0
COc1cc2c(Nc3ccc(NC(=O)c4ccccc4)cc3)ncnc2cc1OCCCN1CCOCC1 | 0

Pending compound:
INPUT: Which %Inh is listed for CNC(=O)c1ccccc1Nc1nc(Nc2cccc(CS(C)(=O)=O)c2)ncc1C.O=CO ?
OUTPUT: 0

====

- Test system: CDC2L1
- Construct: gene CDK11B
- condition_parameters: concentration: 1 μM,replicates: in singlicate; n = 1
I'd appreciate it if you could supply %Inh values for the items below.
Give bare numbers, in %.

The examples below pair each entry with its known result.
C[C@@H]1CNc2c(sc3ccc4nc(-c5ccncc5)ccc4c23)C(=O)N1 | 4
Cn1ccc2ncnc(Oc3ccc(NC(=O)Nc4cccc(C(F)(F)F)c4)c(F)c3)c21 | 19
OCCn1cc(-c2cnc3nnn(Cc4ccc5ncccc5c4)c3n2)cn1 | 11

Record %Inh per entry; entries follow.
1. COC(=O)c1cccc(NC(=O)NC2CCN(c3ccnc(Nc4cc(OC)c(OC)c(OC)c4)n3)C2)c1 (stereo not drawn)
2. CCCC(=O)Nc1n[nH]c2ncccc12

OUTPUT:
[0, 0]

Value sought for every listed molecule: %Inh.
1. O=C(NCC1CC1)c1ccc(-c2cc(C(=O)NC3CC3)ccc2F)cc1
2. Cl.Nc1n[nH]c2cc(-c3ccccn3)ccc12
3. Cc1cccc2c(-c3ccncc3)c(-c3ccc(F)cc3)nn12.Cl

OUTPUT:
1. 0
2. 1
3. 0

INPUT: Can you look up the measured %Inh of Cc1ccc(Nc2ccnc(Nc3ccc4c(c3)CS(=O)(=O)C4)n2)cc1O.Cl for me?
OUTPUT: 44

====

Exercise: state measured %Inh for each of the compounds provided.
- Tested on: CSK
- condition_parameters: concentration: 1 μM,replicates: in singlicate; n = 1
Answers are plain numbers, in %.

Here is how some compounds turned out for %Inh.
O=C(Nc1cccc(Oc2ccc3nccn3n2)c1)Nc1cccc(C(F)(F)F)c1 | 12
COC(=O)c1cccc(NC(=O)NC2CCN(c3ccnc(Nc4cc(OC)c(OC)c(OC)c4)n3)C2)c1 (centres unmarked) | 0
C[C@@H]1CCN(C(=O)N2CCCC2)C[C@@H]1N(C)c1ncnc2[nH]ccc12 | 0
Cl.Nc1n[nH]c2cc(-c3ccccn3)ccc12 | 0
O=C(Nc1ccccc1)c1cccc(Oc2ccc3nccn3n2)c1 | 0

Okay, here is my list. What is %Inh for each of these?
1. Cc1ccc(C(=O)Nc2ccc(Oc3ccc4nc(NC(=O)C5CC5)cn4c3)c(F)c2)c(=O)n1-c1ccccc1
2. NC(=O)c1ccc(-c2cc3ncnc(SCC(=O)O)c3s2)cc1
3. CN1CCN(CCCNc2nccc(-c3c(-c4ccc(F)cc4)nn4cc(C(N)=O)ccc34)n2)CC1

OUTPUT:
1: 24; 2: 0; 3: 11

====

- Tested on: STK36
- condition_parameters: concentration: 1 μM,replicates: in singlicate; n = 1
readout_label: %Inh (%)
Give bare numbers, in %.

Illustrative cases are given below, each with its answer.
Cc1ccn2nc(-c3ccc(F)cc3)c(-c3ccncc3)c2c1.Cl [GW457859] | 24
CCn1c(-c2nonc2N)nc2cncc(CNC3CCNCC3)c21.Cl [SB-747651] | 0
COC(=O)c1cccc(NC(=O)NC2CCN(c3ccnc(NCc4ccc(F)cc4)n3)CC2)c1 [GSK1379860] | 0
COc1cccc(OC)c1C(=O)Nc1cccc(-c2nn3ccccc3c2-c2ccnc(Nc3cccc(F)c3)n2)c1 [GSK361065] | 92
COc1cc2c(Nc3ccc(NC(=O)c4ccccc4)cc3)ncnc2cc1OCCCN1CCOCC1 [GSK301329] | 0
COc1cc2ncn(-c3cc(OCC4CCCCC4)c(C(N)=O)s3)c2cc1OC [GSK204559] | 0
Cn1ccc2ncnc(Oc3ccc(NC(=O)Nc4cccc(C(F)(F)F)c4)c(F)c3)c21 | 0

INPUT: Given the entry Cc1ccc(CC(=O)N2CCc3cc(-c4cn(C)c5ncnc(N)c45)ccc32)cc1 [GSK2634758] , report its measured %Inh.
OUTPUT: 3

====

- Tested on: MINK
- Construct: gene MINK1
- condition_parameters: concentration: 1 μM,replicates: in singlicate; n = 1
readout_label: %Inh (%)
Answers are plain numbers, in %.

See these solved cases before continuing.
OCCn1cc(-c2cnc3nnn(Cc4ccc5ncccc5c4)c3n2)cn1 | 0
CC(C)c1nc(-c2cccc(NS(=O)(=O)c3ccccc3)c2)c(-c2ccnc(Nc3ccc4c(c3)CN(C)CC4)n2)s1 | 95.1
Cc1cccc2c(-c3ccncc3)c(-c3ccc(F)cc3)nn12.Cl | 30
Cc1n[nH]c2cc(Nc3ccnc(Nc4cccc(CN5CCOCC5)c4)n3)ccc12 | 22
COc1cc2c(Nc3ccc(NC(=O)c4ccccc4)cc3)ncnc2cc1OCCCN1CCOCC1 | 17
C[C@@H](Oc1cc(-n2cnc3ccc(-c4ccncc4)cc32)sc1C(N)=O)c1ccccc1Cl | 23
CCn1c(-c2nonc2N)nc2cncc(Br)c21 | 29
C[C@@H]1CNc2c(sc3ccc4nc(-c5ccc(O)cc5)ccc4c23)C(=O)N1 | 61

INPUT: // fetch MINK %Inh for CC(=O)Nc1ccc(-c2cc3ncnc(SCC(=O)O)c3s2)cc1
OUTPUT: 25

====

- Test system: ALK
- condition_parameters: concentration: 1 μM,replicates: in singlicate; n = 1
Where %Inh equals or exceeds 20%, the correct label is condition met; where it does not, the label is condition not met.

Cc1ccc(Nc2ccnc(Nc3ccc4c(c3)CS(=O)(=O)C4)n2)cc1O.Cl [GW579362] | condition met

INPUT: In plain terms: is recorded %Inh at least 20% for CC(=O)Nc1nc2cnc(Nc3cc(NC(=O)c4cccc(CC(C)(C)C#N)c4)ccc3C)nc2s1 ?
OUTPUT: condition met

INPUT: Let us now turn to NC(=O)c1ccc(-c2cc3ncnc(SCC(=O)O)c3s2)cc1
OUTPUT: condition not met

INPUT: What do you get for Cc1cccc(-c2nc(Nc3ccncc3)c3sccc3n2)n1 [GW869641] ?
OUTPUT: condition met

INPUT: Similarly, CN(c1ccccc1CNc1nc(Nc2ccc3c(c2)CC(=O)N3)ncc1C(F)(F)F)S(C)(=O)=O ?
OUTPUT: condition met

====

- System: CASK
- condition_parameters: concentration: 1 μM,replicates: in singlicate; n = 1
Please provide measured %Inh for the entries that follow.
Answers are plain numbers, in %.

Please look at the items below and tell me %Inh for each one, in order.
1. CC(C)c1nc(-c2cccc(NS(=O)(=O)c3ccccc3)c2)c(-c2ccnc(Nc3ccc4c(c3)CN(C)CC4)n2)s1
2. Nc1nccc(-c2ccc3c(N)n[nH]c3c2)n1
3. CNC(=O)c1ccccc1Nc1nc(Nc2cccc(CS(C)(=O)=O)c2)ncc1C.O=CO
4. C[C@@H]1CCN(C(=O)N2CCCC2)C[C@@H]1N(C)c1ncnc2[nH]ccc12
5. NC(=O)c1ccc(-c2cc3ncnc(SCC(=O)O)c3s2)cc1

OUTPUT:
1: 14; 2: 6; 3: 59; 4: 0; 5: 0

====

- Tested on: YANK1
- Construct: gene STK32A
- condition_parameters: concentration: 1 μM,replicates: in singlicate; n = 1
readout_label: %Inh (%)
Numbers only, in %.

A selection of reference data follows.
COc1ccc(Nc2nccc(N3CCC(NC(=O)c4cccc(C#N)c4)C3)n2)cc1 (stereo not drawn) | 0
CCCC(=O)Nc1n[nH]c2ncccc12 | 0

Proceeding to the next compound to report its %Inh.
INPUT: Value lookup for %Inh; key = CCn1c(-c2nonc2N)nc2cncc(Br)c21
OUTPUT: 0

====

- System: ABL1-phosphorylated
- condition_parameters: concentration: 1 μM,replicates: in singlicate; n = 1
Assign a class from recorded %Inh; defined classes: low: < 3%; middle: ≥ 3% and < 20%; high: ≥ 20%

INPUT: Hi there! Could you help me figure out the category for Cc1ccc(C(=O)Nc2ccc(Oc3ccc4nc(NC(=O)C5CC5)cn4c3)c(F)c2)c(=O)n1-c1ccccc1 please?
OUTPUT: high

INPUT: Item: CS(=O)(=O)Nc1ccc(-c2ccnc3[nH]ccc23)cc1 [GSK993273]
OUTPUT: low

INPUT: Same read-out for CCn1c(-c2nonc2N)nc2cncc(Br)c21 [SB-738004] ?
OUTPUT: low

INPUT: Also check C[C@@H]1CNc2c(sc3ccc4nc(-c5ccncc5)ccc4c23)C(=O)N1
OUTPUT: middle

INPUT: Repeat for the following compound: Cc1ccc(Nc2ccnc(Nc3ccc4c(c3)CS(=O)(=O)C4)n2)cc1O.Cl [GW579362]
OUTPUT: high

INPUT: Also need CN1CCN(CCNc2nc3cc(Oc4ccc(NC(=O)Nc5cc(C(F)(F)F)ccc5F)cc4)ccc3[nH]2)CC1.Cl.Cl [GW768504] , thanks.
OUTPUT: high

INPUT: Lookup COc1cccc(C2=C(Nc3cccc(Cl)c3)C(=O)NC2=O)c1 [SB-341556]
OUTPUT: high

INPUT: For Cn1cc(-c2cccc3c(N)c(C(N)=O)nnc23)cn1 then?
OUTPUT: low

INPUT: // same read-out, input: CN(c1ccccc1CNc1nc(Nc2ccc3c(c2)CC(=O)N3)ncc1C(F)(F)F)S(C)(=O)=O
OUTPUT: middle

INPUT: Now the same for c1ccc(Oc2ccc(Nc3ccnc4ccc(-c5ccccn5)cc34)cc2)cc1 [GW407034]
OUTPUT: low

INPUT: Can you handle Cn1ccc2ncnc(Oc3ccc(NC(=O)Nc4cc(C(C)(C)C)on4)c(Cl)c3)c21 next?
OUTPUT: high

INPUT: Same read-out for CCn1c(-c2nonc2N)nc2cncc(CNC3CCNCC3)c21.Cl [SB-747651] ?
OUTPUT: middle

INPUT: Next record, please: Cc1ccn2nc(-c3ccc(F)cc3)c(-c3ccncc3)c2c1.Cl [GW457859]
OUTPUT: low

INPUT: Okay, and COc1cc2ncn(-c3cc(OCC4CCCCC4)c(C(N)=O)s3)c2cc1OC [GSK204559] ?
OUTPUT: low

INPUT: Try O=C(Nc1cccc(Oc2ccc3nccn3n2)c1)Nc1cccc(C(F)(F)F)c1 next.
OUTPUT: middle

INPUT: Could you do the same for Cc1n[nH]c2cc(Nc3ccnc(Nc4cccc(CN5CCOCC5)c4)n3)ccc12 [GW682569] , please?
OUTPUT: high

INPUT: Can you handle CS(=O)(=O)c1cccc(CNc2nc(Nc3ccc4c(c3)[C@@H]3C[C@@H]4CNC3=O)ncc2C(F)(F)F)c1 next?
OUTPUT: high

# credit: paper PMC5540273
